Let's look at some IC50 data for Metabotropic glutamate receptor 3 (Homo sapiens) that I collected from the literature.

- smiles: "N[C@@H](C[C@@H](CCC(=O)NCC(c1ccccc1)c1ccccc1)C(=O)O)C(=O)O"
  obs-value: "> 1000 µM"
- smiles: "N#Cc1cc(F)cc(NC(=O)Nc2ccc(Cl)cn2)c1"
  obs-value: "> 30 µM"

Next up:
Reported IC50 for O=C1CCSC[C@@H](C(=O)Nc2cc(Cl)cc(Br)c2)N1 was > 10 µM
